Origin of the recorded values: patent US4225607A

- methodSummary: LD50 in mice per oral
- measurementParameters: mouse, in vivo
measuredEndpoint: LD50

{"compoundString": "CCCCn1c(=O)c2c(ncn2CC(C)=O)n(CCCC)c1=O", "reading": "> 1000 mg/kg"}
